- Target of assay: UniProt P21452
- Sequence (P21452 whole entry): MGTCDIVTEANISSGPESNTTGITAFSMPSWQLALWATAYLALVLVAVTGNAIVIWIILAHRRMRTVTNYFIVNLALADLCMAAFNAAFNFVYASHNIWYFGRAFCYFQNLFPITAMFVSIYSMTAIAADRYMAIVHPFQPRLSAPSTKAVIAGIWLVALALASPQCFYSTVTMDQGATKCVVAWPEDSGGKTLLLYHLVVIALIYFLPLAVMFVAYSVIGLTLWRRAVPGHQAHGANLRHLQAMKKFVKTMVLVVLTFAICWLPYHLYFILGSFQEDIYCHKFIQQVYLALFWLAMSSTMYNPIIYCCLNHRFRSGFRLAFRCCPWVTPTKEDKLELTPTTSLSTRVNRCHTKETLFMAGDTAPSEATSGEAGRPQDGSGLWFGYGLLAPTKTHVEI
- Procedure text: Signal transduction (ST), intracellular Ca++ (FLIPR), NK2
- Format: cell-based
- Conditions: antagonist, read-out: NK2 pIC50 (converted)
Property label: IC50 (µM)

* O=C(c1ccoc1)N1CCCC2(CCCN(C3CCN(C(=O)c4cc(C(F)(F)F)cc(C(F)(F)F)c4)C(Cc4ccccc4)C3)C2)C1 (stereo not drawn) [Compound 212] | 3.55
* O=C(C1=COCCC1)N1CCC2(CC1)CCN([C@H]1CCN(C(=O)c3cc(C(F)(F)F)cc(C(F)(F)F)c3)[C@H](Cc3ccccc3)C1)CC2 [Compound 45] | 5.37
* O=C(c1cc(C(F)(F)F)cc(C(F)(F)F)c1)N1CC[C@H](N2CCC3(CC2)CCN(S(=O)(=O)c2ccc(Cl)cc2)CC3)C[C@H]1Cc1ccccc1 [Compound 108] | 2.63
* O=C(C1CC1)N1CCC2(CC1)CCN(C(=O)[C@H]1CCN(C(=O)c3cc(C(F)(F)F)cc(C(F)(F)F)c3)[C@H](Cc3ccccc3)C1)CC2 [Compound 186] | 5.01
* CC(C)CN1CCC2(CCN([C@@H]3CCN(C(=O)c4cc(C(F)(F)F)cc(C(F)(F)F)c4)[C@H](Cc4ccccc4)C3)CC2)CC1=O [Compound 193] | 2.51
* Cc1ccsc1C(=O)N1CCC2(CC1)CCN([C@H]1CCN(C(=O)c3cc(C(F)(F)F)cc(C(F)(F)F)c3)[C@H](Cc3ccccc3)C1)CC2 [Compound 32] | 3.16
* O=C(c1cc(C(F)(F)F)cc(C(F)(F)F)c1)N1CC[C@H](N2CCC3(CCN(C(=O)C45CC6CC(CC(C6)C4)C5)CC3)CC2)C[C@H]1Cc1ccccc1 [Compound 60] | 4.68
* O=C(c1cc(C(F)(F)F)cc(C(F)(F)F)c1)N1CC[C@H](N2CCC3(CC2)CCN(S(=O)(=O)c2cccc(Cl)c2)CC3)C[C@H]1Cc1ccccc1 [Compound 107] | 4.17
